Catalogue of compounds with associated composite z-score
test: compound binding in COS7 lysate, probe aLAP1, primary screen, cell lysate, small-molecule microarray (AID 1124); details: probe aLAP1, fluorescence, higher = more signal;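 further: lysate comes from COS7 cells expressing LAP1 and is applied at 0.3 µg/mL; score merges spot fluorescence near 667 nm with signal-to-noise over triplicate slides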
Reply: number alone, nothing else.

{"COMPOUND": "O=C1C[C@@H](O)[C@@H](O)[C@@H]2[C@@H]3C(=O)N(c4cccc(Oc5ccccc5)c4)C(=O)[C@@H]3CC[C@H]12", "composite z-score": 0.183}

Data request: Given the compound O=C1C=C[C@@H](O)[C@@H]2[C@@H]3C(=O)N(C[C@@H]4CCCO4)C(=O)[C@@H]3CC[C@@H]12 , what is its reported composite z-score?
Data returned: 0.421

Data request: Given the compound CC(C)=CCCC(C)=CCON=C1C[C@@H](O)[C@@H](O)[C@@H]2[C@@H]3C(=O)N(Cc4ccccc4)C(=O)[C@@H]3CC[C@@H]12 , what is its reported composite z-score?
Data returned: -0.0612

Data request: Given the compound C=Cc1ccc([C@H]2N[C@H](C(=O)O)CC[C@@H]2C)cc1 , what is its reported composite z-score?
Data returned: 0.723

Data request: Given the compound O=C(NN=C1C[C@@H](O)[C@@H](O)[C@@H]2[C@@H]3C(=O)N(C4CCCCC4)C(=O)[C@@H]3CC[C@@H]12)OCc1ccccc1 , what is its reported composite z-score?
Data returned: 1.74

Data request: Given the compound CSCC[C@@H]1NC(=O)CC=C[C@@H](C)COC(=O)[C@@H](C)COC1=O , what is its reported composite z-score?
Data returned: 0.145

Data request: Given the compound CO[C@H]1COC(=O)[C@H](C)NC(=O)CC=C[C@@H](C)[C@H](OC)COC(=O)[C@@H](OCc2ccccc2)C=C[C@@H]1C , what is its reported composite z-score?
Data returned: -0.198

Data request: Given the compound CCOC(=O)[C@H](Cc1ccccc1)NC(=O)CCC1CC(OC(=O)NCc2cccc3ccccc23)CC2(CCCC(COC(=O)NCc3cccc(C(F)(F)F)c3)O2)O1 (stereo partly drawn) , what is its reported composite z-score?
Data returned: 0.131

Data request: Given the compound CCOC(=O)[C@H](CC(C)C)NC(=O)CCC1CC(OC(=O)NCc2cccc3ccccc23)CC2(CCCC(COC(=O)NCCCN3CCCC3=O)O2)O1 (stereo partly drawn) , what is its reported composite z-score?
Data returned: -0.0183

Data request: Given the compound CCCCc1nc2c(c3c1C[C@H](C)OC3)CN(CCOc1ccccc1)CC2 , what is its reported composite z-score?
Data returned: 0.135

Data request: Given the compound C[C@@H](c1ccccc1)N1C(=O)[C@H]2[C@H]3[C@H](O)[C@H](O)CC(=NO[C@@H]4O[C@H](CO)[C@@H](O)[C@H](O)[C@H]4O)[C@H]3CC[C@H]2C1=O , what is its reported composite z-score?
Data returned: 0.554

Data request: Given the compound O=C1[C@H]2[C@H]3[C@H](O)[C@H](O)CC(=NO[C@@H]4O[C@H](CO)[C@@H](O)[C@H](O)[C@H]4O)[C@H]3CC[C@H]2C(=O)N1c1cccc(Oc2ccccc2)c1 , what is its reported composite z-score?
Data returned: 0.105

Data request: Given the compound CCOC(=O)[C@H](CC(C)C)NC(=O)CCC1CC(OC(=O)NCc2cccc3ccccc23)CC2(CCCC(COC(=O)NCC3CCCCC3)O2)O1 (stereo partly drawn) , what is its reported composite z-score?
Data returned: -0.0193

Data request: Given the compound CCOC(=O)NN=C1C[C@@H](O)[C@@H](O)[C@@H]2[C@@H]3C(=O)N([C@@H](C)c4ccccc4)C(=O)[C@@H]3CC[C@@H]12 , what is its reported composite z-score?
Data returned: 0.129
